Source of measurements: ChEMBL document CHEMBL1201862

Tested on: MDA-N
Assay Overview: NCI tumour cell line growth inhibition, 48 h
Calls of active or inactive are those of the source. Cut-off read from the data, not from the text of the source: active = GI50 up to about 1.1 µM and inactive = higher.
Outcomes: yes (1) for active, no (0) for inactive

>  <Compound>
CN1CCc2c(sc3ncn(Nc4ccc(Cl)cc4)c(=N)c23)C1

>  <Label Value>
no (0)

$$$$
>  <Compound>
CC(=O)Oc1ccc(/C=C/C(=O)OCCOC(=O)/C=C/c2ccc(OC(C)=O)c(OC(C)=O)c2)cc1OC(C)=O

>  <Label Value>
no (0)

$$$$
>  <Compound>
CCCCc1ccc(Nc2nc(Cl)c3ccn(C4CC(Oc5ccc(C)cc5)C(COc5ccc(C)cc5)O4)c3n2)cc1 (centres undefined)

>  <Label Value>
no (0)

$$$$
>  <Compound>
CC(=O)OCC1OC(n2c3c(c(-c4ccc(C)cc4)c(C#N)c2=S)C(=O)CC(C)(C)C3)C(OC(C)=O)C(OC(C)=O)C1OC(C)=O (centres undefined)

>  <Label Value>
no (0)

$$$$
>  <Compound>
CN1CCN(C(=S)N2CCN(C)CC2)CC1

>  <Label Value>
no (0)

$$$$
>  <Compound>
N=C(N)SCc1ccc2c(c1)S(=O)(=O)c1ccccc1O2

>  <Label Value>
no (0)

$$$$
>  <Compound>
c1cc(C2N3CCCN2CC3)ccn1 (centres undefined)

>  <Label Value>
no (0)

$$$$
>  <Compound>
COc1ccc(/C=C2\CCC(C)/C(=C\c3ccc(OC)c(OC)c3)C2=O)cc1OC (centres undefined)

>  <Label Value>
no (0)

$$$$
>  <Compound>
Cc1cc(S(=O)(=O)Nc2n[nH]c(-c3ccc(Cl)cn3)n2)c(S)cc1Cl

>  <Label Value>
no (0)

$$$$
>  <Compound>
CS(=O)(=O)OCCN(CCOS(C)(=O)=O)c1ccc(/C=N/c2ccc(-c3csc(Cc4ccccc4)n3)cc2)c(Cl)c1

>  <Label Value>
no (0)

$$$$
>  <Compound>
Cc1sc(Nc2ccccc2[N+](=O)[O-])c(C#N)c1C

>  <Label Value>
no (0)

$$$$
>  <Compound>
COC(=O)/C=C1/OC(c2ccc(Br)cc2)=C(Br)C1=O

>  <Label Value>
no (0)

$$$$
>  <Compound>
C=C1C(=O)OC2/C=C(/C)C(OC(C)=O)C/C=C(\C)C(OC(=O)C3(C)OC3C)C(O)C12 (centres undefined)

>  <Label Value>
no (0)

$$$$
>  <Compound>
CC(=O)C(I(OS(=O)(=O)c1ccc(C)cc1)c1ccccc1)=P(c1ccccc1)(c1ccccc1)c1ccccc1

>  <Label Value>
no (0)

$$$$
>  <Compound>
O=C1c2ccccc2C(=O)N1n1c(Cc2ccc([N+](=O)[O-])cc2)n[nH]c1=O

>  <Label Value>
no (0)

$$$$
>  <Compound>
CCOC(=O)c1cccc(NC(=O)CCl)c1

>  <Label Value>
no (0)

$$$$
>  <Compound>
COC(=O)c1cc(OC)c(OC)c(OC)c1-c1cc2c(cc1C=O)OCO2

>  <Label Value>
no (0)

$$$$
>  <Compound>
COc1cc(-c2[nH]ccc2Cl)oc1C1=C2N=C3C=C2C(C(C)C)C1CCCCCCCC3 (centres undefined)

>  <Label Value>
yes (1)

$$$$
>  <Compound>
CC(C(=O)N1c2ccccc2Sc2ccccc21)N1c2ccccc2Sc2ccccc21 (centres undefined)

>  <Label Value>
no (0)

$$$$
